These entries and their values trace back to patent US20240034792A1.

Study system: T1, Human PD-1 expressed on CHO-K1 cells (CHO-K1/hPD-1) (human, UniProt Q15116 25-288)
T1 construct: whole, on cells; also called CHO-K1 cells overexpressing human PD-1
T1 sequence (Q15116 25-288): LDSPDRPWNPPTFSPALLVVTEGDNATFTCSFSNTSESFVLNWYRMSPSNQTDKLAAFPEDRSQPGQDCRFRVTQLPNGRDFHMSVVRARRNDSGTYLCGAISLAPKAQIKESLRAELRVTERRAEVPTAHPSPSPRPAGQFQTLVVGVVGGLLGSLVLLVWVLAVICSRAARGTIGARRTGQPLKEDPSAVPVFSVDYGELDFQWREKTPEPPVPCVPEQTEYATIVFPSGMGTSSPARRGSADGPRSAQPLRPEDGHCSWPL
Procedure details: FACS, CHO-K1/hPD-1 cells
Please respond with reported pEC50 for every item in the list.
// returns pEC50 (minus log10 of molar concentration), number only

### Prompt # pEC50 lookup, item PR005570 (antibody, human IgG1, V domains shown, no light chain; also called anti-PD1 PR002481R2M1_H3 HCAb hIgG1) VH: EVQLVETGGGLIQPGGSLRLSCAASGFNVSFYYMSWVRQAPGKGREWVSIIDKGGSTYYGDSVKGRFTISRDNSKNRLYLQMNSLRAEDTAMYYCARATEVREKNGYNYPFNYWGQGTLVTVSS
### Response 8.18

### Prompt Please do the same for PR005573 (antibody, human IgG1, V domains shown, no light chain; also called anti-PD1 PR002481R2M3_D1 HCAb hIgG1) VH: EVQLVETGGGLIQPGGSLRLSCAASGFNVSSHYMSWVRQAPGKGREWVSIIDKAGSGYYAASVKGRFTISRDNSKNRLYLQMNSLRAEDTAMYYCARATEVREKNGYNYPFNYWGQGTLVTVSS as well.
### Response 8.33

### Prompt Param item: PR005581 (antibody, human IgG1, V domains shown, no light chain; also called anti-PD1 PR002481R2M1_A1 HCAb hIgG1) VH: EVQLVETGGGLIQPGGSLRLSCAASGFNVSSFYMSWVRQAPGKGREWVSIIDKAGSTYYGASVKGRFTISRDNSKNRLYLQMNSLRAEDTAMYYCARATEVREKQGYNYPFNYWGQGTLVTVSS
### Response 8.14

### Prompt Follow-up entry: PR005571 (antibody, human IgG1, V domains shown, no light chain; also called anti-PD1 PR002481Com_31 HCAb hIgG1) VH: EVQLVETGGGLIQPGGSLRLSCAASGFNVSFYYMSWVRQAPGKGREWVSIIDKGGSTYYADSVKGRFTISRDNSKNRLYLQMNSLRAEDTAMYYCARATEVREKQGYNYPFNYWGQGTLVTVSS
### Response 8.18

### Prompt For PR005584 (antibody, human IgG1, V domains shown, no light chain; also called anti-PD1 PR002481Com_30 HCAb hIgG1) VH: EVQLVETGGGLIQPGGSLRLSCAASGFNVSSFYMSWVRQAPGKGREWVSIIDKAGSTYYADSVKGRFTISRDNSKNRLYLQMNSLRAEDTAMYYCARATEVREKQGYNYPFNYWGQGTLVTVSS then?
### Response 8.40

### Prompt Subsequent entry: PR005582 (antibody, human IgG1, V domains shown, no light chain; also called anti-PD1 PR002481Com_28 HCAb hIgG1) VH: EVQLVETGGGLIQPGGSLRLSCAASGFNVASFYMSWVRQAPGKGREWVSIIDKAGSTYYGASVKGRFTISRDNSKNRLYLQMNSLRAEDTAMYYCARATEVREKQGYNYPFNYWGQGTLVTVSS
### Response 8.06
